Target: PI3Kδ (Homo sapiens, UniProt O00329)
Construct: expressed in transfected cells
Sequence (O00329 1-1044): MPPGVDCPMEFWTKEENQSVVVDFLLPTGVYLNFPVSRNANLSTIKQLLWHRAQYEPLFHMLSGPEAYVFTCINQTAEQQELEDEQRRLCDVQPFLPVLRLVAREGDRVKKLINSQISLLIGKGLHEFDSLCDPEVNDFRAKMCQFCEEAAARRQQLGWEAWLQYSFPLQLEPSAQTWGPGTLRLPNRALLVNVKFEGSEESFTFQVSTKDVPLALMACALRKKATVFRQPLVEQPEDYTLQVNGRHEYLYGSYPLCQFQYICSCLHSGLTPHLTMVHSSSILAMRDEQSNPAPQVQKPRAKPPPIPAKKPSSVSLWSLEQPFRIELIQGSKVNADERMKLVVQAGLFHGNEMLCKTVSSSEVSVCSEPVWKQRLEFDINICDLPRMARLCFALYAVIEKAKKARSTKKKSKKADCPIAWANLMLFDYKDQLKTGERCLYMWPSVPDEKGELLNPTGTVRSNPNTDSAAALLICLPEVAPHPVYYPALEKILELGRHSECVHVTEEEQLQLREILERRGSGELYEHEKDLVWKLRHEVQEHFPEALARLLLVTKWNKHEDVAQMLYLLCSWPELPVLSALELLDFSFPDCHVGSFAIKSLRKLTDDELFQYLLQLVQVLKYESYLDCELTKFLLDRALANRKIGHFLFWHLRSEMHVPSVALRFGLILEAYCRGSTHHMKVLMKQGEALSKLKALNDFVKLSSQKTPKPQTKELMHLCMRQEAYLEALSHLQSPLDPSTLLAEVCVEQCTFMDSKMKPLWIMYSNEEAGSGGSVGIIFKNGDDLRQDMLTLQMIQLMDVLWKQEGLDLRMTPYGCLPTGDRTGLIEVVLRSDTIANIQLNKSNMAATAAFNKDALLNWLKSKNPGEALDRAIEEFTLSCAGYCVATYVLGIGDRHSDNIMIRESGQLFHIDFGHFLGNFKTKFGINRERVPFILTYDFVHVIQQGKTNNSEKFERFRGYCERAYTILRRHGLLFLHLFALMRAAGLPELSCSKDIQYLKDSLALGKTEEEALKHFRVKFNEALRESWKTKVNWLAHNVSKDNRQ
Assay: PI3K-mediated Akt 1/2 (S473) phosphorylation in Rat-1 cells overexpressing myristoylated PI3K delta (AlphaScreen SureFire)
Assay type: cell-based

# Compound, IC50 (nM)
data = [
    ("COc1ncc(N2CCOc3cnc(O[C@H]4CCN(C(=O)C5CCS(=O)(=O)CC5)C4)cc32)cc1C [Example F1]", 11),
]
